A collection of compounds and their measured melting point

Compound: COC(=O)C1Oc2ccc(Cl)cc2C(C)(c2ccccc2)O1 (stereo not given)
melting point: 114 to 115 °C

Compound: COc1ccc(Sc2ccnc(Nc3ccc(OCCN(C)C)cc3)n2)cc1
melting point: 112 to 113 °C

Compound: C[C@H]1CCCC(C)(C)[C@@H]1[C@H](O)c1ccc(Cl)c(Cl)c1
melting point: 94.2 to 96.2 °C

Compound: CC(C)=CCC/C(C)=C/CSc1nc2ccccc2[nH]1
melting point: 98 to 100 °C

Compound: O=C(O)c1cncc(O)c1
melting point: > 260 °C

###

Measurement Kind: melting point

Compound: Cn1cc(C(F)(F)F)c(C(=O)O)n1
Measurement Kind: melting point
Measurement: 174 to 175 °C

Compound: CC(C)(C#N)Cc1cccc(-c2cccc(CC(C)(C)C#N)c2)c1
Measurement Kind: melting point
Measurement: 96 to 103 °C

Compound: CS(=O)(=O)c1ccc(Oc2ccc(OCC#N)cc2)cc1
Measurement Kind: melting point
Measurement: 114 to 116 °C

Compound: Cc1cc(O)cc(O)c1C=O
Measurement Kind: melting point
Measurement: 174 to 177 °C

Compound: O=CC1=C(Br)CC(F)(Br)C=C1 (centres undefined)
Measurement Kind: melting point
Measurement: 57 to 58 °C

Compound: O=C1OC(Cl)(C(=O)OCc2ccc([N+](=O)[O-])cc2)c2ccccc21 (centres undefined)
Measurement Kind: melting point
Measurement: 132 to 134 °C

Compound: COc1ccc(-c2nc3c(F)cccc3s2)cc1OC
Measurement Kind: melting point
Measurement: 129 °C

Compound: COc1ccc(CCN(C)C)c2[nH]c(=O)[nH]c12
Measurement Kind: melting point
Measurement: 197 to 199 °C

Compound: Cc1cc(OC2CCCCO2)c(C)cc1OCCCC(C)(C)C(=O)O (centres undefined)
Measurement Kind: melting point
Measurement: 122 to 124 °C

Compound: CC1=Cc2ccc(Cl)cc2C(c2ccc(N)c(C)c2)=NN1C(=O)NC1CC1
Measurement Kind: melting point
Measurement: 233 to 236 °C

Compound: c1ccc(-c2cnc(Nc3ccncn3)s2)cc1
Measurement Kind: melting point
Measurement: > 250 °C

Compound: COc1c(C=O)cccc1Oc1ccccc1C
Measurement Kind: melting point
Measurement: 53 to 55 °C

Compound: CCOC(=O)c1ccc(-c2cnc3c(c2)N(C(=O)c2ccccc2)CCN3)cc1
Measurement Kind: melting point
Measurement: 177 to 178 °C

Compound: Cc1coc2ccc(C#N)cc12
Measurement Kind: melting point
Measurement: 73 °C

Compound: COc1cc(N=C(N)c2cccs2)ccc1N1CCN(C(=O)NCCCCC2CCSS2)CC1 (centres undefined)
Measurement Kind: melting point
Measurement: 186 °C

Compound: COc1c(N2CCC(N)C(C)C2)c(F)c(N)c2c(=O)c(C(=O)O)cn(C3CC3)c12 (centres undefined)
Measurement Kind: melting point
Measurement: 260 to 262 °C

Compound: CCN(C(=O)C(F)(F)F)c1ccc(C(=O)Nc2ccc3ccc(OC)nc3n2)cc1
Measurement Kind: melting point
Measurement: 150 °C

Compound: CC(=O)Nc1ccc2c(c1)Cc1cc(=O)[nH]nc1-2
Measurement Kind: melting point
Measurement: > 300 °C

Compound: CCCCNS(=O)(=O)c1ccc(N2CCC3(CC2)OCCO3)cc1
Measurement Kind: melting point
Measurement: 122 to 124 °C

Compound: O=C(O)CCCNC(=O)CCCNC(=O)c1cc(Br)no1
Measurement Kind: melting point
Measurement: 157 to 158 °C

Compound: CC(=O)N(O)C(C)c1ccc2c(c1)Cc1ccccc1-2 (centres undefined)
Measurement Kind: melting point
Measurement: 168 to 171 °C

Compound: O=[N+]([O-])c1ccc(-c2c[nH]c(Cl)n2)cc1
Measurement Kind: melting point
Measurement: 136 to 138 °C

Compound: CC1CN(c2ccc([N+](=O)[O-])cc2Cl)C(=O)O1 (centres undefined)
Measurement Kind: melting point
Measurement: 73 to 75 °C

Compound: CN1C(=O)CN=C(c2ccccn2)c2cc(C#C[Si](C)(C)C)ccc21
Measurement Kind: melting point
Measurement: 194 to 195 °C

Compound: CCOC(=O)CCc1cc(O)nn1C
Measurement Kind: melting point
Measurement: 132 to 135 °C

Compound: O=[N+]([O-])c1cc(O)c(Cl)cc1F
Measurement Kind: melting point
Measurement: 106 to 107 °C

Compound: COC(=O)COc1ccc(-c2coc3cc(OCC(=O)OC)ccc3c2=O)cc1
Measurement Kind: melting point
Measurement: 163 to 166 °C

Compound: NC(=O)c1nccc(-c2ccc(Oc3ccc(F)cc3)cc2)n1
Measurement Kind: melting point
Measurement: 180 to 182 °C

Compound: COC(=N)COc1ccc(OC)cc1
Measurement Kind: melting point
Measurement: 95 to 96 °C

Compound: O=C1N=NC(=O)c2c1[nH]c1cc(Br)cc(Br)c21
Measurement Kind: melting point
Measurement: > 400 °C

Compound: COC(=O)c1nc(CCl)n(-c2ccc(Cl)cc2C(=O)c2ccccc2)n1
Measurement Kind: melting point
Measurement: 132 to 134 °C

Compound: CC(Cl)C(=O)c1ccc2c(c1)CCC(=O)N2 (centres undefined)
Measurement Kind: melting point
Measurement: 205 to 206 °C

Compound: CCc1nc(-c2ccccc2Cl)nn1C
Measurement Kind: melting point
Measurement: 44 °C

Compound: c1ccc2c(NCCN3CCOCC3)noc2c1
Measurement Kind: melting point
Measurement: 79 to 80 °C

Compound: COC(=O)c1ccccc1CC(=O)Nc1cccc(/C=C/c2nc(C3CCC3)cs2)c1
Measurement Kind: melting point
Measurement: 143 to 144 °C

Compound: COc1ccc2[nH]c(-c3cc4cccnc4n3S(=O)(=O)c3ccc(C)cc3)cc2c1
Measurement Kind: melting point
Measurement: 226 to 227 °C

Compound: CCc1nn(C2CCCC2)c2cc(C(=O)Nc3ccc(C(=O)O)cc3)ccc12
Measurement Kind: melting point
Measurement: 249 to 251 °C

Compound: CC(C)N(Cc1ccccc1)c1ncnc2nc[nH]c12
Measurement Kind: melting point
Measurement: 200 to 202 °C

Compound: CN1Cc2c(C(N)=NO)ncn2-c2cccc(Cl)c2C1=O
Measurement Kind: melting point
Measurement: > 250 °C
